These entries and their values trace back to PubChem BioAssay AID1963983.

Listing of entries alongside the reported IC50.
- System: 186277-243-T-J2-PDC multi-cell spheroid viability
- assay-summary: Anticancer human tumor 186277-243-T-J2-PDC patient-derived colon adenocarcinoma cell line growth inhibition [PI3K]
- experimental-conditions: curve of first compound; second compound 0.1 µM

1) CNC(=O)c1ccc(N2C(=S)N(c3ccc(C#N)c(C(F)(F)F)c3)C(=O)C2(C)C)cc1F + COc1c(OCCCN2CCOCC2)ccc2c3n(c(=NC(=O)c4cnc(N)nc4)nc12)CCN3 : < 31.6 nM

# next compound below
*Q* Return value of IC50 for input CC1(C)CCC(CN2CCN(c3ccc(C(=O)NS(=O)(=O)c4ccc(NCC5CCOCC5)c([N+](=O)[O-])c4)c(Oc4cnc5[nH]ccc5c4)c3)CC2)=C(c2ccc(Cl)cc2)C1 + COc1c(OCCCN2CCOCC2)ccc2c3n(c(=NC(=O)c4cnc(N)nc4)nc12)CCN3 , no commentary.
*A* < 31.6 nM

* * *

Listing of entries alongside the reported viability, T/C.
- Test system: 186277-243-T-J2-PDC multi-cell spheroid viability
- assay-summary: Anticancer human tumor 186277-243-T-J2-PDC cell line growth inhibition [PI3K];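 also: spheroids exposed to compounds for seven days before viability reading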;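 as to viability, T/C: 100% = DMSO vehicle control viability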
- experimental-conditions: second compound 0.316 µM; first compound 3.16 µM; stronger effect = lower value
Give just the numeric value; % need not be written.

Some compounds with recorded viability, T/C:
1) CCCS(=O)(=O)Nc1ccc(F)c(C(=O)c2c[nH]c3ncc(-c4ccc(Cl)cc4)cc23)c1F + CC(Nc1ncnc2nc[nH]c12)c1cc2cccc(Cl)c2c(=O)n1-c1ccccc1 : 76.5
2) C[C@@H](NC(=O)c1ncnc(N)c1Cl)c1ncc(C(=O)Nc2cc(C(F)(F)F)c(Cl)cn2)s1 + COc1c(OCCCN2CCOCC2)ccc2c3n(c(=NC(=O)c4cnc(N)nc4)nc12)CCN3 : 1.83
3) CC1(C)CCC(Nc2ncc(C(F)(F)F)c(-c3c[nH]c4c(P(C)(C)=O)c(C#N)ccc34)n2)CN1 (stereo not given) + CC(Nc1ccc2c(c1)OCCn1cc(N3C(=O)OCC3C(F)F)nc1-2)C(N)=O : 22.6
4) Cn1ncc(Cl)c1-c1cc(C(=O)NC(CN)Cc2cccc(F)c2)sc1Cl (stereo not given) + Cc1nc(NC(=O)N2CCCC2C(N)=O)sc1-c1ccnc(C(C)(C)C(F)(F)F)c1 : 25.3
5) CNC(=O)c1ccc(N2C(=S)N(c3ccc(C#N)c(C(F)(F)F)c3)C(=O)C2(C)C)cc1F + COc1c(OCCCN2CCOCC2)ccc2c3n(c(=NC(=O)c4cnc(N)nc4)nc12)CCN3 : 7.13
6) C=CC(=O)N1CCN(c2nc(=O)n(-c3c(C)ccnc3C(C)C)c3nc(-c4c(O)cccc4F)c(F)cc23)C(C)C1 (stereo not given) + CC(Nc1ccc2c(c1)OCCn1cc(N3C(=O)OCC3C(F)F)nc1-2)C(N)=O : 56.9

*Q* Return value of viability, T/C for input CC(C)NCC(C(=O)N1CCN(c2ncnc3c2C(C)CC3O)CC1)c1ccc(Cl)cc1 (stereo not given) + Cc1nc(NC(=O)N2CCCC2C(N)=O)sc1-c1ccnc(C(C)(C)C(F)(F)F)c1 , no commentary.
*A* 18

*Q* Return value of viability, T/C for input CC1(C)CCC(Nc2ncc(C(F)(F)F)c(-c3c[nH]c4c(P(C)(C)=O)c(C#N)ccc34)n2)CN1 (stereo not given) + CC(Nc1ncnc2nc[nH]c12)c1cc2cccc(Cl)c2c(=O)n1-c1ccccc1 , no commentary.
*A* 64.2

*Q* Return value of viability, T/C for input CCCS(=O)(=O)Nc1ccc(F)c(C(=O)c2c[nH]c3ncc(-c4ccc(Cl)cc4)cc23)c1F + Cc1nc(NC(=O)N2CCCC2C(N)=O)sc1-c1ccnc(C(C)(C)C(F)(F)F)c1 , no commentary.
*A* 78.7

*Q* Return value of viability, T/C for input CC1(C)CCC(Nc2ncc(C(F)(F)F)c(-c3c[nH]c4c(P(C)(C)=O)c(C#N)ccc34)n2)CN1 (stereo not given) + Cc1nc(NC(=O)N2CCCC2C(N)=O)sc1-c1ccnc(C(C)(C)C(F)(F)F)c1 , no commentary.
*A* 48.7
